Test system: Pseudomonas aeruginosa
Experiment: Growth inhibition of Pseudomonas aeruginosa ATCC 10145 incubated for 24 hrs under aerobic condition by microdilution method
Type: organism-based
Reported MIC values are given for each entry in this list.
assay.metric: MIC

- O=C1N[C@@H](Cc2ccc(OCc3ccccc3)cc2)C(=O)N[C@H]1Cc1ccc(OCc2ccccc2)cc1: > 192 µg/mL
- O=C1N[C@H](Cc2ccc(OCc3ccccc3)cc2)C(=O)N[C@@H]1Cc1ccc(OCc2ccccc2)cc1: > 192 µg/mL
- O=C1N[C@H](Cc2ccc(OCc3ccccc3)cc2)C(=O)N[C@H]1Cc1ccccc1: > 192 µg/mL

---

Tested on: Streptococcus mutans
Assay: Antibiofilm activity against Streptococcus mutans ATCC 25175 assessed as inhibition of biofilm formation up to 96 ug/mL after 24 hrs by crystal violet staining-based assay
Type: functional, organism-based
The source made the active and inactive calls. No rule for the calls is given here.
Possible outcomes: yes = active, no = inactive

• O=C1N[C@H](Cc2ccccc2)C(=O)N[C@@H]1Cc1ccccc1 = no
• CC(C)C[C@@H]1NC(=O)[C@H](C(C)C)NC1=O = no
• O=C1N[C@@H](Cc2ccc(O)cc2)C(=O)N[C@H]1Cc1ccc(O)cc1 = no
• N=C(N)NCCC[C@@H]1NC(=O)[C@H](Cc2ccc(O)cc2)NC1=O = no
• O=C1N[C@@H](Cc2ccc(O)cc2)C(=O)N[C@H]1Cc1ccccc1 = no
• O=C1N[C@@H](Cc2ccc([N+](=O)[O-])cc2)C(=O)N[C@H]1Cc1ccc([N+](=O)[O-])cc1 = no
• O=C1N[C@H](Cc2ccc(OCc3ccccc3)cc2)C(=O)N[C@H]1Cc1ccc(OCc2ccccc2)cc1 = no
• O=C1N[C@H](Cc2ccccc2)C(=O)N[C@H]1COCc1ccccc1 = no
• CC(C)C[C@H]1NC(=O)[C@@H](C(C)C)NC1=O = no
• CCC(C)[C@@H]1NC(=O)[C@H](Cc2ccccc2)NC1=O (some centres not stated) = no
• CC(C)C[C@H]1NC(=O)[C@@H](CC(C)C)NC1=O = no
• O=C1CNC(=O)[C@H](CCC(=O)OCc2ccccc2)N1 = no
• C[C@@H]1NC(=O)[C@H](Cc2ccccc2)NC1=O = no
• O=C1[C@H]2CCCN2C(=O)[C@H]2CCCN12 = no
• CC(C)C[C@@H]1NC(=O)CNC1=O = no
• O=C1N[C@H](Cc2ccccc2)C(=O)N[C@H]1Cc1ccccc1 = no
• O=C1N[C@H](Cc2ccc(O)cc2)C(=O)N[C@@H]1Cc1ccccc1 = no
• C[C@@H]1NC(=O)[C@@H](C)NC1=O = no
• CC(C)C[C@@H]1NC(=O)[C@H](CC(C)C)NC1=O = no
• CC(C)C[C@@H]1NC(=O)[C@@H](CC(C)C)NC1=O = no
• O=C1N[C@H](Cc2ccc(OCc3ccccc3)cc2)C(=O)N[C@@H]1Cc1ccccc1 = yes
• O=C1N[C@@H](Cc2ccc(OCc3ccccc3)cc2)C(=O)N2CCC[C@@H]12 = no
• O=C1N[C@@H](Cc2ccc(OCc3ccccc3)cc2)C(=O)N[C@H]1Cc1ccc(OCc2ccccc2)cc1 = yes
• O=C1N[C@@H](Cc2ccc(OCc3ccccc3)cc2)C(=O)N[C@H]1Cc1ccccc1 = yes
• C[C@H]1NC(=O)[C@@H](Cc2ccccc2)NC1=O = no
• CC(C)C[C@@H]1NC(=O)[C@@H](C(C)C)NC1=O = no
• O=C1N[C@@H](Cc2ccccc2)C(=O)N[C@H]1COCc1ccccc1 = no
• O=C1[C@@H]2CSCN2C(=O)[C@@H]2CSCN12 = no
• C[C@@H]1NC(=O)[C@H](Cc2ccc(OCc3ccccc3)cc2)NC1=O = no
• CC(C)C[C@H]1NC(=O)[C@@H](Cc2ccc(OCc3ccccc3)cc2)NC1=O = no
• C[C@H]1NC(=O)[C@@H](C)NC1=O = no
• NCCCC[C@@H]1NC(=O)[C@H](Cc2ccccc2)NC1=O = no
